ASSAY METHOD TEXT: yeast display, Sf9 membrane polyspecificity reagent, FACS + sequencing; frameworks hold sequencing errors
ATTRIBUTE MEASURED: polyreactivity (PSR sort gate)

Below are worked cases with known answers.
INSERT INTO measurements (sequence_string, attribute_measured, observed_value) VALUES
  ('QVQRVESGGGLVQAGGSLRLSCAASGSTFPPYGMGWSRQAPGKERELVAAITWRGGRTYYADSVKGRFTISRDNAKNTVYLQMNSLKPEDTAVYYCAASYGPRTGYATYRYASSRYNYWGQGTQVTVSS', 'polyreactivity (PSR sort gate)', 'high polyreactivity'),
  ('QVQLQESGGGLVQAGGSLRLSCAASGNIFEADIMGWYHQAQGKERELVASITDGGSTNYADSVKGRFTINRDNAKNNVYLQMNSLKPEDTAVYYCAAIAYPDIPTYFDYDSDYFYWGQGTQVTVSS', 'polyreactivity (PSR sort gate)', 'high polyreactivity'),
  ('QVQLVESGGGLVQAGGSLRLSCAASGYTFLGYAMGWYRQAPGKERELVAAIRRSGGRTYYADSVKGRFTISRDNAKNTVYLQMNSLKPEDTAVYYCAKGYVGEYDYWGQGTQVTVSS', 'polyreactivity (PSR sort gate)', 'high polyreactivity'),
  ('QVQLVESGGGLVQAGGSLRLSCAASGITFRHNTMGWYRQAPGKERELVSTNYADSVKGRFTISRDNAKNTVYLQMNSLKPEDTAVYYCNADGTFEYDYWGQGTQVTVSS', 'polyreactivity (PSR sort gate)', 'low polyreactivity');

Specify measured polyreactivity (PSR sort gate) for QVQLVESGGGLVQAGGSLRLSCAASGYIFFGNAMGWYRQAPGKERELVAAIRWRGTSTYYADSVKGRFTISRDNAKNTVYLQMNSLKPEDTAVYYCAADVVRYNFYGTFLYDYDYWGQGTQVTVSS .
low polyreactivity

* * *

ASSAY METHOD TEXT: yeast display, Sf9 membrane polyspecificity reagent, FACS + sequencing; frameworks hold sequencing errors
ATTRIBUTE MEASURED: polyreactivity (PSR sort gate)

For orientation, consider the following solved cases.
INSERT INTO assay_data (sequence_string, attribute_measured, observed_value) VALUES
  ('QVQLVESGGGLVHAGGSLRLSCAASGSTFLPNAMVWYRQSHGKERELVAAISYRGGGTFYADSVKGRFTISRDNAKNTVYLQMNSLKPEDTAVYYCAADWSWFDNFDYWGQGTQVTVSS', 'polyreactivity (PSR sort gate)', 'low polyreactivity'),
  ('QVQLVESGGGLVQAGGSLRLSCAASGSIFRLYAMGWYRPAPGKERELVATITSGGNTYADSVKGRFTISRDNAKNTVYLQMNSLKPEDTAVYYCAARYRYRGTQRPYVGYYRNDYWGQGTQVTVSS', 'polyreactivity (PSR sort gate)', 'high polyreactivity'),
  ('QVQLVESGGGLVQAGGSLRLSCAASGYTFTHNAIGWYRQAPGKERELVATIRNSGSRTYYADSVKGRFTISRDNGKNTVYLQMNSLKPEDTAVYYCAARLLYRHFGYWGQGTQVTVSS', 'polyreactivity (PSR sort gate)', 'high polyreactivity'),
  ('QVQLVESGGGLVQAGGSLRLSSAASGRTFAWYAMGWYRQAPGKERELVAAISSGGSTYYADSVKGRFTISRDNAKNTVYLQMDSLKPEDTAVYYCAAEWHYIYAYDYWGQGTQVTVSS', 'polyreactivity (PSR sort gate)', 'low polyreactivity');

Tell me measured polyreactivity (PSR sort gate) for QVQIVESGGGLVQAGGSLRLTCAASGLTFTGNAMGWYIQAPGKERELVAAISWSGGSKYYADSVKGRYTISRDNAKNTVYLQMNSLQPEDTAVYYCADPDARYDYWGQGTQVTVSS please.
high polyreactivity

Please indicate polyreactivity (PSR sort gate) recorded for QAQLQESGGGLVQAGGSLPRSCAPSGSIFRFSGMGWYRRAPGKERELVASIGFGSITYYEDRVKGRFTISRDNANNTVYLQMNSLKPEDTAVYYCAVQVQDDSWLDYWGQGTQVTVSC
low polyreactivity

Dear colleague, please send me the reported polyreactivity (PSR sort gate) for QVQLVESGGGLVQAGGSLRLSCAASGSIFKINAMGCYTPAPGKERELVATITRSTGTTYYADSVKGRFTNSRDTAKNSVYLQMNSLKPEDTAVYYCATDGDSNKLDYWGQGTQVTVSS when you can.
low polyreactivity

Supply polyreactivity (PSR sort gate) value. Item: QVQLVESGGGLVQAGGSLRLSCAASGLTFAGYAMGWYRQAPGKERELVAAITSGGSTYYADSVKGRFTISRDNAKNTVYLQMNSLKPEDTAVYYCAARRVRKALVGYGYWGQGTQVTVSS
high polyreactivity

Specify polyreactivity (PSR sort gate) for QVQLVESGGGLVQAGGSLRLSCAASGRIFRINGMGWYRQAPGKEREFVAAITSGGGTYYADTVKGRFTISRDNAKNTVYLQMNSLKPEDTAVYYCAAPSYRTRYYYWGQGTQVTVSS and stop.
high polyreactivity

Assign polyreactivity (PSR sort gate) to the following record: QVQLVESGGGLVQAGGSLRLSCAASGISYTSYAMGWYRQAPGKERELVAAISSSGGSTYYADSVKGRFTISRDNAKNTVYLQMNSLKPEDTAVYYCIARPRSRSPRVEYDYWGQGTQVTVSS
high polyreactivity
